Tested on: C. glabrata T-190 (11-304)
experiment.description: MIC, broth double dilution
Assay type: cell-based
measurement.conditions: strain no. 42, T-190 (11-304), clinical isolate
value.type: MIC
Record the result as a number with its unit.

• CC[C@H](C)C[C@H](C)CCCCCCCCC(=O)N[C@H]1C[C@@H](O)[C@@H](NCCN)NC(=O)[C@@H]2[C@@H](O)CCN2C(=O)[C@H]([C@H](O)CCN)NC(=O)[C@H]([C@H](O)[C@@H](O)c2ccc(OCc3cn(CCCNC(=O)c4ccc(-c5c6ccc(=[N+](C)C)cc-6oc6cc(N(C)C)ccc56)c(C(=O)[O-])c4)nn3)cc2)NC(=O)[C@@H]2C[C@@H](O)CN2C(=O)[C@H]([C@@H](C)O)NC1=O [Compound 1] = 0.5 µg/mL

Attention now turns to another entry.
## Task Name the recorded MIC for CC[C@H](C)C[C@H](C)CCCCCCCCC(=O)N[C@H]1C[C@@H](O)[C@@H](NCCN)NC(=O)[C@@H]2[C@@H](O)CCN2C(=O)[C@H]([C@H](O)CCN)NC(=O)[C@H]([C@H](O)[C@@H](O)c2ccc(OCc3cn(CCCNc4ccc([N+](=O)[O-])c5nonc45)nn3)cc2)NC(=O)[C@@H]2C[C@@H](O)CN2C(=O)[C@H]([C@@H](C)O)NC1=O [Compound 2] .
## Result 2 µg/mL

====

System: C. glabrata CST109
experiment.description: MIC, broth double dilution
Type: cell-based
measurement.conditions: strain no. 18, C. glabrata CST109 (parental)
This listing pairs molecules with measured MIC.
State the answer as a number, implicitly in µg/mL.

• C#CCOc1ccc([C@H](O)[C@@H](O)[C@@H]2NC(=O)[C@@H]3C[C@@H](O)CN3C(=O)[C@H]([C@@H](C)O)NC(=O)[C@@H](NC(=O)CCCCCCCC[C@@H](C)C[C@@H](C)CC)C[C@@H](O)[C@@H](NCCN)NC(=O)[C@@H]3[C@@H](O)CCN3C(=O)[C@H]([C@H](O)CCN)NC2=O)cc1 [Compound 1a] = 1

## Task Identify the measured MIC of CC[C@H](C)C[C@H](C)CCCCCCCCC(=O)N[C@H]1C[C@@H](O)[C@@H](NCCN)NC(=O)[C@@H]2[C@@H](O)CCN2C(=O)[C@H]([C@H](O)CCN)NC(=O)[C@H]([C@H](O)[C@@H](O)c2ccc(OCc3cn(CCCNc4ccc([N+](=O)[O-])c5nonc45)nn3)cc2)NC(=O)[C@@H]2C[C@@H](O)CN2C(=O)[C@H]([C@@H](C)O)NC1=O [Compound 2] for C. glabrata CST109.
## Result 4

## Task Identify the measured MIC of CC[C@H](C)C[C@H](C)CCCCCCCCC(=O)N[C@H]1C[C@@H](O)[C@@H](NCCN)NC(=O)[C@@H]2[C@@H](O)CCN2C(=O)[C@H]([C@H](O)CCN)NC(=O)[C@H]([C@H](O)[C@@H](O)c2ccc(OCc3cn(CCCNC(=O)c4ccc(-c5c6ccc(=[N+](C)C)cc-6oc6cc(N(C)C)ccc56)c(C(=O)[O-])c4)nn3)cc2)NC(=O)[C@@H]2C[C@@H](O)CN2C(=O)[C@H]([C@@H](C)O)NC1=O [Compound 1] for C. glabrata CST109.
## Result 1

## Task Identify the measured MIC of CC[C@H](C)C[C@H](C)CCCCCCCCC(=O)N[C@H]1C[C@@H](O)[C@@H](NCCNC(=O)CCc2ccc3n2[B-](F)(F)[N+]2=C(C)C=C(C)C2=C3)NC(=O)[C@@H]2[C@@H](O)CCN2C(=O)[C@H]([C@H](O)CCN)NC(=O)[C@H]([C@H](O)[C@@H](O)c2ccc(O)cc2)NC(=O)[C@@H]2C[C@@H](O)CN2C(=O)[C@H]([C@@H](C)O)NC1=O [CSF-BOD] for C. glabrata CST109.
## Result 2
